Cited source for all entries: ChEMBL document CHEMBL2311376

Item-by-item account of MIC
- Test system: Escherichia coli
- Protocol summary: Antimicrobial activity against Escherichia coli K-12 containing delta-lacU169 tolC::Tn10 gyrA S83L mutant by microbroth dilution assay
- Assay type: functional
Express your answer in µg/mL, writing the number without its unit.

O=c1c2c(n(C3CC3)c3cc(N4CCNCC4)c(F)cc13)COB2O: 64

Q: Input `O=c1c(Br)c(CO)n(C2CC2)c2cc(N3CCNCC3)c(F)cc12` , output reported MIC.
Ans: 256
